Source of measurements: patent US11613525B2

molecular target: huSTING (HAQ) (Homo sapiens (Human), UniProt Q86WV6, G230A/H232R/R293Q/R71H); experiment: THP-1 reporter cell line assay, THP-1 STING Lucia ISG cells; assay type: cell-based; conditions: THP-1 STING Lucia ISG cells; 24 h; top concentration 50 μM; read-out: Cellular EC50 huSTING (HAQ)
Sequence (Q86WV6 whole entry R71H/G230A/H232R/R293Q): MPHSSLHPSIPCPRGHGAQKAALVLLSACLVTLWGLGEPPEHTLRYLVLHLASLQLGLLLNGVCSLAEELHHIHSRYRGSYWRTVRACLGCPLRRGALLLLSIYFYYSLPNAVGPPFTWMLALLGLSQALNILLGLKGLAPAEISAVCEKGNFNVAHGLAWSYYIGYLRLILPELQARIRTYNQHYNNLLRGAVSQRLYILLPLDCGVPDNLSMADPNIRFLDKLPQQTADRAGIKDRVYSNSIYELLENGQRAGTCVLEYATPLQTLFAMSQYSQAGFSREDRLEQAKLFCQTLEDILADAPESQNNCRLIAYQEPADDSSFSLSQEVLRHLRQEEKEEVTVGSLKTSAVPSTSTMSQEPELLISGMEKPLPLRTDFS
Reported EC50 values follow for various compounds

Examples with answers:
INSERT INTO results (compound_string, quantity_kind, measured_result) VALUES
  ('NC(=O)c1ccc(OCc2c(C(=O)O)sc3cc(Cl)cc(F)c23)cc1', 'EC50', '> 50 µM'),
  ('NC(=O)c1cc(F)c(OCc2c(C(=O)O)sc3ccc(F)c(Cl)c23)c(F)c1', 'EC50', '> 50 µM'),
  ('NC(=O)c1ccc(OCc2c(C(=O)O)sc3cccc(C(F)(F)F)c23)cc1', 'EC50', '> 50 µM');

Query: Query (compound): NC(=O)c1c(F)cc(OCc2c(C(=O)O)sc3cccc(Cl)c23)cc1F ; field requested: EC50
Response: > 50 µM

Query: And for CCOC(=O)c1sc2ccccc2c1COc1ccc(C(N)=O)cc1 ?
Response: 8.22 µM

Query: What do you have for NC(=O)c1ccc(OCc2c(C(=O)O)sc3cccc(F)c23)c(F)c1 ?
Response: > 50 µM

Query: // next record Cc1cccc2sc(C(=O)O)c(COc3ccc(C(N)=O)cc3)c12
Response: > 50 µM

Query: Also, CCOC(=O)c1sc2cccc(F)c2c1COc1ccc(C(N)=O)c(C)c1 please.
Response: > 50 µM

Query: Same lookup for CCOC(=O)c1sc2cccc(Br)c2c1COc1ccc(C(N)=O)cc1 , please.
Response: 0.474 µM

Query: Again, but for NC(=O)c1ccc(OCc2c(C(=O)O)sc3c(Cl)cccc23)cc1
Response: > 50 µM

Query: # iterate: CCOC(=O)c1sc2cccc(Cl)c2c1CNc1ccc(C(N)=O)cc1
Response: 17.9 µM

Query: Try CCOC(=O)c1sc2ccc(F)c(Cl)c2c1COc1c(F)cc(C(N)=O)cc1F next.
Response: 1.63 µM

Query: Ok, now CC(C)(C)C(=O)OCOC(=O)c1sc2cccc(Cl)c2c1COc1ccc(C(N)=O)cc1
Response: 1.05 µM

---

biological target: huSTING (WT) (Homo sapiens (Human), UniProt Q86WV6, H232R); assay: THP-1 reporter cell line assay, THP-1-Dual KI-hSTING-R232 cells; format: cell-based; details: read-out: Cellular EC50 huSTING (WT)
Sequence (Q86WV6 whole entry H232R): as the sequence (Q86WV6 whole entry R71H/G230A/H232R/R293Q) above, with H71R, A230G, Q293R counted along it
pEC50: −log10 of the molar value.
Each record here notes measured pEC50.

Some compounds with known pEC50 results, for comparison:
INSERT INTO results (compound_string, measured_target, measured_result) VALUES
  ('CCOC(=O)c1sc2ccc(Cl)cc2c1COc1ccc(C(N)=O)cc1', 'huSTING (WT) (Homo sapiens (Human), UniProt Q86WV6, H232R)', '< 4.30'),
  ('CCOC(=O)c1sc2ccc(F)c(Cl)c2c1COc1c(F)cc(C(N)=O)cc1F', 'huSTING (WT) (Homo sapiens (Human), UniProt Q86WV6, H232R)', '< 4.30');

Next:
Query: So what's the measured pEC50 for this one? Cc1cccc2sc(C(=O)O)c(COc3ccc(C(N)=O)cc3)c12
Response: < 4.30
